Origin of measurements: patent US20150329594A1

Listed here: items and their measured C3b ELISA IC50.
Target: human complement protein C3 (human, UniProt P01024 23-1663)
Sequence (P01024 23-1663 limits assumed): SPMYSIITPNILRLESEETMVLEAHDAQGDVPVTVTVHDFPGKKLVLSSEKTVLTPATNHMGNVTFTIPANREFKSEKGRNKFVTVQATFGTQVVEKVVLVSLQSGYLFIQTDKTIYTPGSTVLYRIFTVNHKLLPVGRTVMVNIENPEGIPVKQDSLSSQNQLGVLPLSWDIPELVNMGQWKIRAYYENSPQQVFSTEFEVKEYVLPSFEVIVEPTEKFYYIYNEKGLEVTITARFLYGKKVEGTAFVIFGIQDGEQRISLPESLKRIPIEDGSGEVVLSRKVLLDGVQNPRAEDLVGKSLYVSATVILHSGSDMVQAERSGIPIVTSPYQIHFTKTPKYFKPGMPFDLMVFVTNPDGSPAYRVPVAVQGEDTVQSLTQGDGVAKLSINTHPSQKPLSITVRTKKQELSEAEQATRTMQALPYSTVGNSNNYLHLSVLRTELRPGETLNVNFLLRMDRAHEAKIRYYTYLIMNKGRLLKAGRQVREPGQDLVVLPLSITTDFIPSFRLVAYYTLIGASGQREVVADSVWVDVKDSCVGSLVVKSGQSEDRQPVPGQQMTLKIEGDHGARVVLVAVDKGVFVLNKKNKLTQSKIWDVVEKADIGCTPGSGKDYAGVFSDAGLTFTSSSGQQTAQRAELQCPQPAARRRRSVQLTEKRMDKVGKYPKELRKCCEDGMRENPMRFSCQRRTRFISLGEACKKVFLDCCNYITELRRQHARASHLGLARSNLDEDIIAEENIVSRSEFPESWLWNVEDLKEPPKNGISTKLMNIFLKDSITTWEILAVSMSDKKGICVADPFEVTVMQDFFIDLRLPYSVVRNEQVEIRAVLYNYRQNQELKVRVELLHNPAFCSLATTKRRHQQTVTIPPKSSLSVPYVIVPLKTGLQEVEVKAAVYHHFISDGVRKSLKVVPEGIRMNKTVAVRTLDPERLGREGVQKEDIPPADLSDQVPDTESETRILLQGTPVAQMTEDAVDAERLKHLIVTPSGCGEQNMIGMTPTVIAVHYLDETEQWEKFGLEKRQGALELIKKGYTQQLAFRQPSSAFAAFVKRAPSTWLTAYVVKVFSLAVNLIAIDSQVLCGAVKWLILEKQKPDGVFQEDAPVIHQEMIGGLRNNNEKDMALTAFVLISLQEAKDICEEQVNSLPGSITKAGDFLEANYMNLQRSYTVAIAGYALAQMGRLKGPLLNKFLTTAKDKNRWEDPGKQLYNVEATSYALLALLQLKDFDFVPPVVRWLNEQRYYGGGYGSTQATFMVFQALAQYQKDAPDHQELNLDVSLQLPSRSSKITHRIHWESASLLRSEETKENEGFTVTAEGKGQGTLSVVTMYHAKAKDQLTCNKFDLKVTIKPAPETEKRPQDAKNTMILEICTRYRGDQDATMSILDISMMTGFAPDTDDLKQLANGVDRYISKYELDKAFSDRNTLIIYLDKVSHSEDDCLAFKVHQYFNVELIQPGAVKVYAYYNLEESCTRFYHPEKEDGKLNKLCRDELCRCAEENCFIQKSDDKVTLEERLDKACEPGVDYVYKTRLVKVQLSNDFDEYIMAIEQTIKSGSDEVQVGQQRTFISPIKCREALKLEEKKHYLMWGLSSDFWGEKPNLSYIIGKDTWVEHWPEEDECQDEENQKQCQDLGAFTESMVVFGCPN
Test: cell-based or functional assay
Bridge positions count the residues as written; N and C are the ends. Square brackets hold non-standard residues; d marks the D form. Nal = 1-naphthylalanine or 2-naphthylalanine; Trp(1-Me) = Cn1cc(C[C@H](N)C(=O)O)c2ccccc21; Aal = not defined here
measuredQuantity: C3b ELISA IC50 (nM)

binder	experimentalResult
Ac-ERICVWQDWG[Nal]HRCT-NH2 (disulfide 4-14; not fully specified; printed as Ac-ER-ICVWQDWG{Nal}HRCT-NH2) [Peptide 4.1, Ac-ER-ICVWQDWG{Nal}HRCT-NH2]	3000
Ac-ICV[Trp(1-Me)]QDWG[Nal]HRCT-NH2 (disulfide 2-12; not fully specified; printed as Ac-ICV{meW}QDWG{Nal}HRCT-NH2) [Peptide 2.1, Ac-ICVmeWQDWG{Nal}HRCT-NH2]	1400
Ac-ICVWQDWG[Aal]HRCT-NH2 (disulfide 2-12; reading uncertain; also: printed as Ac-ICVWQDWG{Aal}HRCT-NH2) [Peptide 2.4, Ac-ICVWQDWG{Aal}HRCT-NH2]	900
Ac-NNLCVWQDWGAHRCT-NH2 (disulfide 4-14; SMILES CC(=O)N[C@@H](CC(N)=O)C(=O)N[C@@H](CC(N)=O)C(=O)N[C@@H](CC(C)C)C(=O)N[C@H]1CSSC[C@@H](C(=O)N[C@H](C(N)=O)[C@@H](C)O)NC(=O)[C@H](CCCNC(=N)N)NC(=O)[C@H](Cc2c[nH]cn2)NC(=O)[C@H](C)NC(=O)CNC(=O)[C@H](Cc2c[nH]c3ccccc23)NC(=O)[C@H](CC(=O)O)NC(=O)[C@H](CCC(N)=O)NC(=O)[C@H](Cc2c[nH]c3ccccc23)NC(=O)[C@H](C(C)C)NC1=O) [Peptide 3.2, Ac-NN-LCVWQDWGAHRCT-NH2]	600
Ac-ERICVWQDWGAHRCT-NH2 (disulfide 4-14; SMILES CC[C@H](C)[C@H](NC(=O)[C@H](CCCNC(=N)N)NC(=O)[C@H](CCC(=O)O)NC(C)=O)C(=O)N[C@H]1CSSC[C@@H](C(=O)N[C@H](C(N)=O)[C@@H](C)O)NC(=O)[C@H](CCCNC(=N)N)NC(=O)[C@H](Cc2c[nH]cn2)NC(=O)[C@H](C)NC(=O)CNC(=O)[C@H](Cc2c[nH]c3ccccc23)NC(=O)[C@H](CC(=O)O)NC(=O)[C@H](CCC(N)=O)NC(=O)[C@H](Cc2c[nH]c3ccccc23)NC(=O)[C@H](C(C)C)NC1=O) [Peptide 3.1, Ac-ER-ICVWQDWGAHRCT-NH2]	900
Ac-NRLCVWQDWGAHRCT-NH2 (disulfide 4-14; SMILES CC(=O)N[C@@H](CC(N)=O)C(=O)N[C@@H](CCCNC(=N)N)C(=O)N[C@@H](CC(C)C)C(=O)N[C@H]1CSSC[C@@H](C(=O)N[C@H](C(N)=O)[C@@H](C)O)NC(=O)[C@H](CCCNC(=N)N)NC(=O)[C@H](Cc2c[nH]cn2)NC(=O)[C@H](C)NC(=O)CNC(=O)[C@H](Cc2c[nH]c3ccccc23)NC(=O)[C@H](CC(=O)O)NC(=O)[C@H](CCC(N)=O)NC(=O)[C@H](Cc2c[nH]c3ccccc23)NC(=O)[C@H](C(C)C)NC1=O) [Peptide 3.3, Ac-NR-LCVWQDWGAHRCT-NH2]	600
